assay: colorimetric readout interference by compounds, confirmation, artefact control for Scp-1 inhibitor project, biochemical, single concentration (AID 540313); settings: Colorimetric interference counterscreen, malachite green absorbance 630 nm; at 20 µM; stronger effect = higher value;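 also: compounds added after enzyme reaction finished so only phosphate colour detection is probed; plate controls were DMSO wells with completed Scp-1 reaction for no effect and substrate wells lacking enzyme for full effect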
The whole screen tested about 2,500 compounds, of which fewer than 10 were called active. A selection follows.
Listed below: apparent inhibition (interference) values for each entry.
Experimental readout: apparent inhibition (interference) (%)

{"Molecule": "COC(=O)c1ccccc1NC(=O)C1(S(=O)(=O)c2ccc(Cl)cc2)CC1", "Experimental readout": "apparent inhibition (interference)", "Measurement units": "%", "Reported measurement": -20.5}
{"Molecule": "C[n+]1ccc(C(=O)NCc2ccccc2)cc1", "Experimental readout": "apparent inhibition (interference)", "Measurement units": "%", "Reported measurement": -18.9}
{"Molecule": "CO/N=C(\\C(=O)N[C@@H]1C(=O)N2C(C(=O)O)=C(COC(C)=O)CS[C@H]12)c1csc(N)n1 (stereo in doubt)", "Experimental readout": "apparent inhibition (interference)", "Measurement units": "%", "Reported measurement": -15.6}
{"Molecule": "O=C(N/N=C/c1ccco1)c1ccc(C(=O)N/N=C/c2ccco2)o1", "Experimental readout": "apparent inhibition (interference)", "Measurement units": "%", "Reported measurement": -14.2}
{"Molecule": "O=C(CNC(=O)C(c1ccccc1)c1ccccc1)N/N=C\\c1ccc2c(c1)OCO2", "Experimental readout": "apparent inhibition (interference)", "Measurement units": "%", "Reported measurement": -8.18}
{"Molecule": "O=C(CCNC(=O)c1ccccc1)NN=Cc1ccc(Br)o1", "Experimental readout": "apparent inhibition (interference)", "Measurement units": "%", "Reported measurement": -15.3}
{"Molecule": "CNS(=O)(=O)c1cccc(C(=O)OCC(=O)N2c3ccccc3NC(=O)C2(C)C)c1", "Experimental readout": "apparent inhibition (interference)", "Measurement units": "%", "Reported measurement": -15.3}
{"Molecule": "Cc1ccc(S(=O)(=O)Nc2ccc3c(c2)C(=O)N([C@H](C)CO)C[C@@H](C)[C@@H](CN(C)C(=O)Nc2cccc4ccccc24)O3)cc1", "Experimental readout": "apparent inhibition (interference)", "Measurement units": "%", "Reported measurement": -13.6}
{"Molecule": "Cc1ccc(C(=O)NNC(=O)c2cc3cc4ccccc4nc3s2)cc1", "Experimental readout": "apparent inhibition (interference)", "Measurement units": "%", "Reported measurement": -12.3}
{"Molecule": "O=C(Nc1cccc(F)c1)c1cc(-c2ccco2)nc2ccccc12", "Experimental readout": "apparent inhibition (interference)", "Measurement units": "%", "Reported measurement": -4.88}
{"Molecule": "N#Cc1ccccc1CN1C(=O)S/C(=C/c2cccn2-c2cccc(C(=O)O)c2)C1=O", "Experimental readout": "apparent inhibition (interference)", "Measurement units": "%", "Reported measurement": -14.7}
{"Molecule": "COc1ccc(OCC(=O)NNC(=O)c2ccc(-c3ccccc3)cc2)cc1", "Experimental readout": "apparent inhibition (interference)", "Measurement units": "%", "Reported measurement": -11.5}
{"Molecule": "O=C(NN1C(=O)C2C3C=CC(O3)C2C1=O)c1ccccc1 (stereo unspecified)", "Experimental readout": "apparent inhibition (interference)", "Measurement units": "%", "Reported measurement": -7.63}
{"Molecule": "Cc1ccc(Cc2nnc(SCC(=O)Nc3ccc(C)cc3C)[nH]c2=O)cc1", "Experimental readout": "apparent inhibition (interference)", "Measurement units": "%", "Reported measurement": -12.9}
{"Molecule": "O=C(c1cc2c(s1)CCC2)N1CCN(c2ccccc2)CC1", "Experimental readout": "apparent inhibition (interference)", "Measurement units": "%", "Reported measurement": -15.9}
{"Molecule": "CCCc1nc(-c2cc3cc(C)ccc3[nH]c2=O)no1", "Experimental readout": "apparent inhibition (interference)", "Measurement units": "%", "Reported measurement": -14}
{"Molecule": "O=[N+]([O-])c1cc(S(=O)(=O)Nc2cccc(Cl)c2)ccc1N=Nc1c(O)[nH]c2ccccc12", "Experimental readout": "apparent inhibition (interference)", "Measurement units": "%", "Reported measurement": -15.6}
{"Molecule": "O=S(=O)(Nc1ccccc1Cl)c1cccc2nsnc12", "Experimental readout": "apparent inhibition (interference)", "Measurement units": "%", "Reported measurement": -11.2}
{"Molecule": "O=C(COc1ccc(-n2cnnn2)cc1)Nc1ccccc1Cl", "Experimental readout": "apparent inhibition (interference)", "Measurement units": "%", "Reported measurement": -15.1}
{"Molecule": "COc1ccc(Cl)cc1NC(=O)CCS(=O)(=O)c1ccc(Br)cc1", "Experimental readout": "apparent inhibition (interference)", "Measurement units": "%", "Reported measurement": -18.6}
{"Molecule": "Cc1ccc(CN2CCN(c3ccccc3Cl)CC2)o1", "Experimental readout": "apparent inhibition (interference)", "Measurement units": "%", "Reported measurement": -14.5}
